Data credit: patent US20240207429A1

# target.entity: T1, Cynomolgus/Rhesus macaque FOLR1 Protein, His Tag (ACRO, F01-C52H8) (cynomolgus, UniProt A0A2K5U044 25-233)
# T1 construct: also called cynomolgus FOLR1 protein; not shown: His tag
# method.summary: ELISA, supernatant diluted 25x
experimental.endpoint: OD450
One number for each entry.

F100 (antibody, V domains shown, also called clone F100; anti-FOLR1 antibody F100) VH: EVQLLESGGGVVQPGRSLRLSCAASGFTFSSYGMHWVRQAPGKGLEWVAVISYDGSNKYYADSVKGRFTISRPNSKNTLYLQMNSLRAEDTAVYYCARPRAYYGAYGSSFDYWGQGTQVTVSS VL: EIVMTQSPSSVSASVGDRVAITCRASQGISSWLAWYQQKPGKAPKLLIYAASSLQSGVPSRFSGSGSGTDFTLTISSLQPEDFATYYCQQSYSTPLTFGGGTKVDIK; 0.875

Okay, next one:
Looking for the measured OD450 of F8 (antibody, V domains shown, also called clone F8; anti-FOLR1 antibody F8) VH: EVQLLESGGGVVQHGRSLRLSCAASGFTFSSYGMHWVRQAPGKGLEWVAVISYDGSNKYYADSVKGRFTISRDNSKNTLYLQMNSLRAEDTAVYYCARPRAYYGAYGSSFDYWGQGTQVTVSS VL: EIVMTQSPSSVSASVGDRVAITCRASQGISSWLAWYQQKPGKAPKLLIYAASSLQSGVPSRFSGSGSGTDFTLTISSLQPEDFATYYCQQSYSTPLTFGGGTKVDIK , can you help?
1.06
